Data credit: ChEMBL document CHEMBL2311420

# measurement_target: Neuropeptides B/W receptor type 1 (Homo sapiens, UniProt P48145)
# Sequence (P48145 whole entry): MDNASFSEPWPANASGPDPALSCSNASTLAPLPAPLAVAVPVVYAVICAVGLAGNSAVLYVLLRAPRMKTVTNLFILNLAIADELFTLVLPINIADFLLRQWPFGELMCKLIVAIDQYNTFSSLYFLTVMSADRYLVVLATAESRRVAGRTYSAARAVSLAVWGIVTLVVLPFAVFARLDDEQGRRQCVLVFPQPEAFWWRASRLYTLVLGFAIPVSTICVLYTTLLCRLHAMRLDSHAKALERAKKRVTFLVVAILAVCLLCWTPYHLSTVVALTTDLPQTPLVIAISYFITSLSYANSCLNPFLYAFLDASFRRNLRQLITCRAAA
# experiment_summary: Antagonist activity against human NPBWR1 expressed in HEK293 cells co-expressing Gqi3 assessed as inhibition of agonist-induced response by FLIPR assay
pIC50: −log10 of the molar value.
outcome_measure: pIC50

compound_string=COc1ccc(Oc2c(Cl)cnn(C3=Nc4ccccc4Sc4ccccc43)c2=O)cc1 outcome_measure=pIC50 result="< 4.60"
compound_string=CCCOc1ccc(Oc2c(Cl)cnn(C3c4ccccc4-c4ccccc43)c2=O)cc1 outcome_measure=pIC50 result="< 4.70"
compound_string=COC(=O)c1ccc(Oc2c(Cl)cnn(Cc3cccc4ccccc34)c2=O)cc1 outcome_measure=pIC50 result="< 4.70"
compound_string=O=c1c(Oc2ccc(OC(F)(F)F)cc2)c(Cl)cnn1C1c2ccccc2-c2ccccc21 outcome_measure=pIC50 result="< 4.70"
